Tested On: beta-conglycinin (heat-denatured, boiled 10 min) (Glycine max, UniProt P0DO16;P11827;P25974 P0DO16:63-605,P11827:63-621,P25974:24-439)
Sequence (P0DO16 63-605, chain 1 of 3): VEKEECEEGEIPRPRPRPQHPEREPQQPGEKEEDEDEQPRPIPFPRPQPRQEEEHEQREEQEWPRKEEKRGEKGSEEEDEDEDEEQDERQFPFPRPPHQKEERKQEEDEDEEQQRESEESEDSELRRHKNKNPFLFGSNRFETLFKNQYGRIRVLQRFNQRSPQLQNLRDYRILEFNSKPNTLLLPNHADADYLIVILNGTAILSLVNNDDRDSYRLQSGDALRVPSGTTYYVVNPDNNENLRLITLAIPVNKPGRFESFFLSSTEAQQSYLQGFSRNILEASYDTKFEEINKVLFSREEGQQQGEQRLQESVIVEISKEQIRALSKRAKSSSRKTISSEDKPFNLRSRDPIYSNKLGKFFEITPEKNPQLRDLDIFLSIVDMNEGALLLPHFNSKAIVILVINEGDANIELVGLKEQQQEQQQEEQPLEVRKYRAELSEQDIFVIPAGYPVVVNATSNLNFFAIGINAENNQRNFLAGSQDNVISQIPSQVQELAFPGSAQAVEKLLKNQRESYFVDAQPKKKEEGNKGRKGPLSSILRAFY
Sequence (P11827 63-621, chain 2 of 3): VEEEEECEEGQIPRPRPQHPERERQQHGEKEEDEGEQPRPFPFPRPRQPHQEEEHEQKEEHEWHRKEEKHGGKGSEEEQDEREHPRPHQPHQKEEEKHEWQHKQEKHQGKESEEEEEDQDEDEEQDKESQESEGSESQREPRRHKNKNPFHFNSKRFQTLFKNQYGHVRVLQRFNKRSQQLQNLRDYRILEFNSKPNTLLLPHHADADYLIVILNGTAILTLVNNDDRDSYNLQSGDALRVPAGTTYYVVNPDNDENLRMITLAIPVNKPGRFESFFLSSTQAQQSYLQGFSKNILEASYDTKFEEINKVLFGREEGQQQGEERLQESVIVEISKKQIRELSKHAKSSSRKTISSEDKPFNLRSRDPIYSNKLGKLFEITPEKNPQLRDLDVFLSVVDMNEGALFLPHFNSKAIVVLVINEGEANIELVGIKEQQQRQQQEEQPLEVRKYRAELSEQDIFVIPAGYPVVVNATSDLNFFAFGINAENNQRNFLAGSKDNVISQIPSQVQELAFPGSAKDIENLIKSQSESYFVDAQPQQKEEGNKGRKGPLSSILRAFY
Sequence (P25974 24-439, chain 3 of 3): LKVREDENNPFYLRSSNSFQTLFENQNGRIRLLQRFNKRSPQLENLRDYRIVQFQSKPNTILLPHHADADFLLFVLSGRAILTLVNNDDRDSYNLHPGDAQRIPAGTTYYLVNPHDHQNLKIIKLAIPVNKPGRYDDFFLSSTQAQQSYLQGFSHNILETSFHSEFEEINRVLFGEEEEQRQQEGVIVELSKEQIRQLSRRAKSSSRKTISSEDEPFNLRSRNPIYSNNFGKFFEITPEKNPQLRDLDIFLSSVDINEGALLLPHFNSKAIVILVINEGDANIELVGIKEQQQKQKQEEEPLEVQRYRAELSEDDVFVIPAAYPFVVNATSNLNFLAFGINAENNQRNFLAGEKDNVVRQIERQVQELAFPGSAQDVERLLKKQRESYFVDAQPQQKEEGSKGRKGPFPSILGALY
Protocol Text: SPR; little binding, 18.75-300 nM
Particulars: tags: Sigma C5868-5GM

[
  {
    "Binder": "P_NES03 (CONA161R2R8m1s32) (ssDNA) DNA: GTTCGTGGTGTGTTGTGTGTGATTCCAGGGACAAAAAAAAAAAAAAAAAAAAAAAA",
    "binding result": "no binding"
  },
  {
    "Binder": "CTCTCTCTCTCTCCCTCTCTCTCTCAAAAAAAAAAAAAAAAAAAAAAAA (ssDNA) [CT25_C3 (Pyrimidine rich)]",
    "binding result": "no binding"
  },
  {
    "Binder": "TTTTTTTTTTTTTTTTTTTTAAAAAAAAAAAAAAAAAAAAAAAA (ssDNA) [PolydT20]",
    "binding result": "no binding"
  }
]

Hey, just so you know, these numbers are from patent US20160298117.
